test system: HCT-116; test: Cytotoxicity against human HCT116 cells; assay type: functional, cell-based
// reported pIC50 for each item listed
Note on units: pIC50 is unitless, being -log10 of a concentration expressed in mol/L.

Worked set:
O=Cc1cc(O)c2nccc3c2c1Nc1ccccc1-3
5.80
NCCc1cc(O)c2nccc3c2c1Nc1ccccc1-3
5.80
NCC(O)c1cc(O)c2nccc3c2c1Nc1ccccc1-3 (stereo not given)
5.80
CC(=O)NCCc1cc(O)c2nccc3c2c1Nc1ccccc1-3
5.80

Let's switch to this molecule now.
(Q) # return recorded pIC50 for input N=C(N)NCCCCNC(=O)C(O)(O)C(c1c[nH]c2cc(Br)ccc12)C(O)(Cc1c[nH]c2cc(Br)ccc12)C(=O)NCCCCNC(=N)N (stereo not given) [EUSYNSTYELAMIDE]
(A) 4.00

====

target: UniProt:P29476
Sequence (P29476 whole entry): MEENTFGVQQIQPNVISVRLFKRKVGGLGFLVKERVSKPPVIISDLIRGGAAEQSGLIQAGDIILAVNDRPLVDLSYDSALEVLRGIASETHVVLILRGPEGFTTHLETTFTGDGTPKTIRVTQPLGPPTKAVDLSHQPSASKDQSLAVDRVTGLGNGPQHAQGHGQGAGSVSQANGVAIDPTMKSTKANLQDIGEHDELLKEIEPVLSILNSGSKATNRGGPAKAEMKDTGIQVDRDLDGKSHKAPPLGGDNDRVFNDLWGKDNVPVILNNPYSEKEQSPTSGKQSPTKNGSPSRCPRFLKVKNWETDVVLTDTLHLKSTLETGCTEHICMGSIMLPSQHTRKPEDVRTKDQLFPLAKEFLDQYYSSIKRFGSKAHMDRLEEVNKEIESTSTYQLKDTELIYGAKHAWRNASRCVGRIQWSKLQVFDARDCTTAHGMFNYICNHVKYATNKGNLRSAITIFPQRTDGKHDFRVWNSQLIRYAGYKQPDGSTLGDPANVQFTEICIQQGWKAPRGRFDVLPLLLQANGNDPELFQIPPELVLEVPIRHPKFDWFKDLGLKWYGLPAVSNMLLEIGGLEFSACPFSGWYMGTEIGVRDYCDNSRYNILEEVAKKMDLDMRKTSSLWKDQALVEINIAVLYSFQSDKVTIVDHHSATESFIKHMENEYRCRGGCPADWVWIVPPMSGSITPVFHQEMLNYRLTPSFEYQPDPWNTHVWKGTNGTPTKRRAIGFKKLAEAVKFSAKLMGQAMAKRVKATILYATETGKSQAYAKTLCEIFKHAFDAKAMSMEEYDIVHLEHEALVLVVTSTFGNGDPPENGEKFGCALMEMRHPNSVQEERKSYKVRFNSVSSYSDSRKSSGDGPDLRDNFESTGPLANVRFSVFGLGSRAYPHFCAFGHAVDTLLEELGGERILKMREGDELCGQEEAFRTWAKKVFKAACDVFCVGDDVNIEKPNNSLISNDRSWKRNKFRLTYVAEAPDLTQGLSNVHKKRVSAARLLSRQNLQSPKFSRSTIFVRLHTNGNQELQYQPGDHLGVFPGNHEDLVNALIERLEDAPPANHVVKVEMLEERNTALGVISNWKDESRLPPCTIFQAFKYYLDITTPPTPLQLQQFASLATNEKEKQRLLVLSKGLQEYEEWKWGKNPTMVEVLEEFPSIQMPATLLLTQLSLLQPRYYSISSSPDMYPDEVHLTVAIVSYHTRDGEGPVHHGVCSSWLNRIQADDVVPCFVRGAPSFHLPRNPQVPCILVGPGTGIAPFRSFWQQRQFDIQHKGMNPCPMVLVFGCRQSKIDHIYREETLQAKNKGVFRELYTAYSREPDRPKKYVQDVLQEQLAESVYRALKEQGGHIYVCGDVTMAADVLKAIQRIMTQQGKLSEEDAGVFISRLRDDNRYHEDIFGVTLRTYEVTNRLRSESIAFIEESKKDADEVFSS
measuredParameter: IC50 (µM)
Write the number in µM without appending the unit.

(Q) Quote UniProt:P29476 IC50 for entry N=C(N)NCCCCNC(=O)[C@]1(O)[C@H](c2c[nH]c3cc(Br)ccc23)[C@@](O)(Cc2c[nH]c3cc(Br)ccc23)C(=O)N1CCCCNC(=N)N .
(A) 41.7

====

system: Staphylococcus aureus; assay: Antibacterial activity against Staphylococcus aureus after 24 hrs by microtiter dilution assay; type: functional, organism-based
Item-by-item account of IC50
# value in µM; strip the unit string

N=C(N)NCCCCNC(=O)[C@@]1(O)[C@H](c2c[nH]c3cc(Br)ccc23)[C@@](O)(Cc2c[nH]c3cc(Br)ccc23)C(=O)N1CCCCNC(=N)N
6.5

Shifting focus to the compound that follows.
(Q) For the compound N=C(N)NCCCCNC(=O)[C@]1(O)[C@H](c2c[nH]c3cc(Br)ccc23)[C@@](O)(Cc2c[nH]c3cc(Br)ccc23)C(=O)N1CCCCNC(=N)N , give its reported IC50.
(A) 19
